TEST: Substrate specificity of WNanoKAZ mutants, crude enzyme solution (Example 11)
Assay type: biochemical
PROTOCOL CONDITIONS: substrate 6h-f-CTZ, Imax
Quick list: Relative luminescence activity, 6h-f-CTZ, Imax per entry.
RECORDED METRIC: Relative luminescence activity, 6h-f-CTZ, Imax

1. WNanoKAZ-R166N: single amino acid-substituted WNanoKAZ mutant R166N; SEQ ID NO: 16 (protein) FTLADFVGDWQQTAGYNQDQVLEQGGLSSLFQALGVSVTPIQKVVLSGENGLKADIHVIIPYEGLSGFQMGLIEMIFKVVYPVDDHHFKVILHYGTLVIDGVTPNMIDYFGRPYEGIAVFDGKKITVTGTLWNGNKIIDERLINPDGSLLFRVTINGVTGWRLCENILA; 13
2. WNanoKAZ: chimeric protein: positions 1-82 of native KAZ and 83-169 of nanoKAZ; SEQ ID NO: 6; I90V, P115E, Q124K, Y138I, N166R (protein, chimeric protein: positions 1-82 of native KAZ and 83-169 of nanoKAZ; I90V, P115E, Q124K, Y138I, N166R) FTLADFVGDWQQTAGYNQDQVLEQGGLSSLFQALGVSVTPIQKVVLSGENGLKADIHVIIPYEGLSGFQMGLIEMIFKVVYPVDDHHFKVILHYGTLVIDGVTPNMIDYFGRPYEGIAVFDGKKITVTGTLWNGNKIIDERLINPDGSLLFRVTINGVTGWRLCERILA; 41
3. WNanoKAZ-V90I: single amino acid-substituted WNanoKAZ mutant, valine 90 back to isoleucine; SEQ ID NO: 8 (protein) FTLADFVGDWQQTAGYNQDQVLEQGGLSSLFQALGVSVTPIQKVVLSGENGLKADIHVIIPYEGLSGFQMGLIEMIFKVVYPVDDHHFKIILHYGTLVIDGVTPNMIDYFGRPYEGIAVFDGKKITVTGTLWNGNKIIDERLINPDGSLLFRVTINGVTGWRLCERILA; 23
4. WNanoKAZ-E115P: WNanoKAZ with substitution of proline for glutamic acid at position 115; SEQ ID NO: 10 (protein) FTLADFVGDWQQTAGYNQDQVLEQGGLSSLFQALGVSVTPIQKVVLSGENGLKADIHVIIPYEGLSGFQMGLIEMIFKVVYPVDDHHFKVILHYGTLVIDGVTPNMIDYFGRPYPGIAVFDGKKITVTGTLWNGNKIIDERLINPDGSLLFRVTINGVTGWRLCERILA; 14
5. WNanoKAZ-K124Q: single amino acid-substituted WNanoKAZ mutant K124Q; SEQ ID NO: 12 (protein) FTLADFVGDWQQTAGYNQDQVLEQGGLSSLFQALGVSVTPIQKVVLSGENGLKADIHVIIPYEGLSGFQMGLIEMIFKVVYPVDDHHFKVILHYGTLVIDGVTPNMIDYFGRPYEGIAVFDGKQITVTGTLWNGNKIIDERLINPDGSLLFRVTINGVTGWRLCERILA; 40
6. WNanoKAZ-I138Y: single amino acid-substituted WNanoKAZ mutant I138Y; SEQ ID NO: 14 (protein) FTLADFVGDWQQTAGYNQDQVLEQGGLSSLFQALGVSVTPIQKVVLSGENGLKADIHVIIPYEGLSGFQMGLIEMIFKVVYPVDDHHFKVILHYGTLVIDGVTPNMIDYFGRPYEGIAVFDGKKITVTGTLWNGNKIYDERLINPDGSLLFRVTINGVTGWRLCERILA; 17
